Run description: Cesium distribution ratio (DCs), equilibrium batch contact of mixed extractant solvent with nitric acid feed
Assay type: physicochemical
Test context: third forward extraction, 1.5 M HNO3 feed, 25 °C; 0.007 M calixarene solvent
Entries and their measured Cesium distribution ratio, contact E3 follow.
Output spec: single numeric token, no unit.

CC(C)CCCC(C)CCOc1c2cccc1Cc1cccc3c1OCCOCCOc1ccccc1OCCOCCOc1c(cccc1Cc1cccc(c1OCCC(C)CCCC(C)C)C3)C2 (stereo not drawn) [MC-10B]: 1.5
CCCCC(CCCC)CCCOc1c2cccc1Cc1cccc3c1OCCOCCOc1ccccc1OCCOCCOc1c(cccc1Cc1cccc(c1OCCCC(CCCC)CCCC)C3)C2 [MC-12B]: 1.1
CCCCCCCCCCCCOc1c2cccc1Cc1cccc3c1OCCOCCOc1ccccc1OCCOCCOc1c(cccc1Cc1cccc(c1OCCCCCCCCCCCC)C3)C2 [MC-12]: 1.3
CCCCCCCCCCOc1c2cccc1Cc1cccc3c1OCCOCCOc1ccccc1OCCOCCOc1c(cccc1Cc1cccc(c1OCCCCCCCCCC)C3)C2 [MC-10]: 1.6

May I ask what Cesium distribution ratio, contact E3 has been recorded for CCCCC(CC)COc1c2cccc1Cc1cccc3c1OCCOCCOc1ccccc1OCCOCCOc1c(cccc1Cc1cccc(c1OC[C@H](CC)CCCC)C3)C2 (stereo partly drawn) [MC-8B] ? 1.0

Could you share which Cesium distribution ratio, contact E3 value was measured for CCCCCCCCOc1c2cccc1Cc1cccc3c1OCCOCCOc1ccccc1OCCOCCOc1c(cccc1Cc1cccc(c1OCCCCCCCC)C3)C2 [MC-8] ? 1.5
